Each record here notes measured Fluorescence intensity, fluorescence competitive binding assay, OBP11.
experimental-system: SfurOBP11 (Sogatella furcifera)
Sequence (V5T6E3 entry or part of it): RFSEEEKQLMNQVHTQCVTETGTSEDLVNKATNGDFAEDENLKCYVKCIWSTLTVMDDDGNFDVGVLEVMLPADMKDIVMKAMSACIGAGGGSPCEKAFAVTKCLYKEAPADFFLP
assay-comment: biochemical
Type: binding
assay-conditions: ligand concentration 18, replicate 2
Lab note: record the figure alone, no unit after it.

# molecule, quantitative-result
measured = [
    ("CC1=CC[C@@H](C(C)(C)O)CC1", 25030),
    ("CCCCCCC=CCO", 29725),
    ("OC1CCCCC1", 23356),
    ("CCCCCCCCCCCCCCCC", 23830),
    ("CC(C)COC(=O)CCCCC(=O)OCC(C)C [DA(diisobutyl adipate)]", 21669),
]

What does the data say about its Fluorescence intensity, fluorescence competitive binding assay, OBP11? Entry: `C[C@@H]1CC[C@H]2C(C)(C)[C@H]3C[C@@]12CC[C@@]3(C)O`
38034

Look up Fluorescence intensity, fluorescence competitive binding assay, OBP11: CCCCCCCCCCCCCCCC(=O)OC [MH(methyl hexadecanoate)]
71076

Which Fluorescence intensity, fluorescence competitive binding assay, OBP11 is listed for `CCCCCCCCCCCCCC` ?
34724

Which Fluorescence intensity, fluorescence competitive binding assay, OBP11 value belongs to `CC(=O)/C=C/C1=C(C)CCCC1(C)C` ?
17364

Fill in: Fluorescence intensity, fluorescence competitive binding assay, OBP11 of `CCCCCCCCCCCCC=O` is ___
29942

Which Fluorescence intensity, fluorescence competitive binding assay, OBP11 is reported for this molecule? `C/C(=C\CO)CCC[C@H](C)CCC[C@H](C)CCCC(C)C`
26038

Fluorescence intensity, fluorescence competitive binding assay, OBP11 for `CCCCCC=O` ?
21057

Reference source for all entries: paper PMC6409085
